molecular target: GST-tagged PNCK recombinant protein (Homo sapiens, UniProt Q6P2M8); construct: GST; purchased Novus NBP1-99886; test: ADP-Glo Kinase Assay, biochemical PNCK inhibitor screen; details: compound 10uM; 25uM ATP; normalized to DMSO and staurosporine controls; read-out: Avg. Normalized % Inhibition, 10uM, ADP Kinase Glo
Please respond with reported inhibition at 10 µM for every item in the list.
Write it as a number; the unit % goes unstated.

# input Using the record for Cc1ccc(F)c(S(=O)(=O)Nc2ccc(-c3nn(C)cc3C(=O)O)cc2)c1 , report its inhibition at 10 µM.
# output 38.2

# input Using the record for O=C(O)c1ccc(-c2nc3c([nH]2)CCN(C(=O)c2cc(C4CC4)n[nH]2)C3)cc1 , report its inhibition at 10 µM.
# output 51.7

# input Using the record for CN([C@@H](Cc1ccc(OS(=O)(=O)c2cccc3cnccc23)cc1)C(=O)N1CCN(c2ccccc2)CC1)S(=O)(=O)c1cccc2cnccc12 [KN-62, reference compound] , report its inhibition at 10 µM.
# output 100

# input Using the record for O=C(O)Cc1cc(C2CCN(C(=O)c3ccc(C(F)(F)F)nc3O)CC2)[nH]n1 , report its inhibition at 10 µM.
# output 7.65

# input Using the record for O=C(O)Cc1ccc(NS(=O)(=O)c2cccc(Cl)c2Cl)cc1 , report its inhibition at 10 µM.
# output 48.6

# input Using the record for O=C(O)c1ccc(F)c(S(=O)(=O)Nc2ccc(-c3cnco3)cc2)c1 , report its inhibition at 10 µM.
# output 33.3
